molecular target: recombinant IL4I1 (Homo sapiens (Human), UniProt Q96RQ9); test: IL4I1 Enzymatic Assay (Amplex Red/HRP coupled fluorescence detection of H2O2); assay type: biochemical; settings: 240 min; recombinant IL4I1, four-hour pre-incubation with compound
Sequence (Q96RQ9 22-567): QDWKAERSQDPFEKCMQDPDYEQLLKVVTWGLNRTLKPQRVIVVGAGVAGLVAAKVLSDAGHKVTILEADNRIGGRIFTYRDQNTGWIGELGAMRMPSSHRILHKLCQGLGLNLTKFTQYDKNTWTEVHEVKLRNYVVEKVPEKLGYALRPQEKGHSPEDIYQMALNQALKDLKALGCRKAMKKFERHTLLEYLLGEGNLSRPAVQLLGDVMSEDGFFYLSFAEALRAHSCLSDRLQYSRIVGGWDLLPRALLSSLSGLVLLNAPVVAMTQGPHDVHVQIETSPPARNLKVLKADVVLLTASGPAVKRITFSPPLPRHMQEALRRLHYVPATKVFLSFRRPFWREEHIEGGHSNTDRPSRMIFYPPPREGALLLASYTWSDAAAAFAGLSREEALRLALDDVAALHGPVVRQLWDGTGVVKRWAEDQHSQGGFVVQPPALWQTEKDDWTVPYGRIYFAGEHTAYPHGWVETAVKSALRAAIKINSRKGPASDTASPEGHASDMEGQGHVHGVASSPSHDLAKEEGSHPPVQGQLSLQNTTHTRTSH
measured quantity: EC50 (nM)

Q: Kindly indicate its recorded EC50. Item: O=C1C(=O)N([C@H]2C[C@H]3C[C@H]3C2)CCN1Cc1cnc(-c2ccccc2)cn1
Ans: 6

(1) CC1(n2ccn(Cc3ccc(-n4ccnn4)nn3)c(=O)c2=O)CC1
(2) O=c1c(=O)n(C2CCC2)ccn1Cc1ncc(-c2ccccc2)cn1
(3) O=c1c(=O)n(C2CCCC2)ccn1Cc1cc(-c2cccc(F)c2)no1
(4) O=c1c(=O)n(C23CC(F)(C2)C3)ccn1Cc1ccc(-c2cccnc2)nn1
Q: Please list these in order of increasing EC50. Thank you! Arrange the labels as the request states and list them.
Ans: 3, 2, 1, 4
(3: 2 nM, 2: 15 nM, 1: 29 nM, 4: 57 nM)

(A) O=C1C(=O)N(C2CCCC2)CCN1Cc1ccc(-n2ccnn2)nn1
(B) O=c1c(=O)n(C2CCC2)ccn1Cc1ccc(-c2nccs2)nn1
(C) O=C1C(=O)N(C2CCCC2)CCN1Cc1ccc(-c2ccccc2)[n+]([O-])c1
(D) O=C1C(=O)N(C23CC(C2)C3)CCN1Cc1cc(-c2ccccc2)on1
(E) O=C1C(=O)N(C23CC(C2)C3)CCN1Cc1nnc(-c2ccc(F)cc2)s1
Q: Given 5 compounds, produce a descending ranking by EC50. Arrange the labels as the request states and list them.
Ans: C, A, B, E, D
(C: 57 nM, A: 21 nM, B: 9 nM, E: 5 nM, D: 3 nM)

(I) CC1(n2ccn(Cc3cc(-c4ccccn4)on3)c(=O)c2=O)CC1
(II) C[C@H](c1nnc(-c2ccccc2)s1)N1CCN(C2CCCC2)C(=O)C1=O
Q: Of I and II , which shows the smaller EC50 value? Reply briefly: the label of your chosen item.
Ans: II

(1) O=C1C(=O)N(C23CC(C2)C3)CCN1Cc1ncc(-c2ccccc2)cn1
(2) O=c1c(=O)n(C2(CF)CC2)ccn1Cc1ccc(-n2ccnn2)nc1
Q: In the pair 1 and 2 , the larger recorded EC50 belongs to which? Reply briefly: the label of your chosen item.
Ans: 1

(P) CC(c1cnn(-c2ccccc2)c1)N1CCN(C2CCCC2)C(=O)C1=O (stereo not drawn)
(Q) O=c1c(=O)n(C23CC(C2)C3)ccn1Cc1nnc(-c2ccc(F)cc2)s1
(R) O=C1C(=O)N(C23CC(F)(C2)C3)CCN1Cc1ccc(-n2nccn2)nc1
Q: Please list these in order of increasing EC50. Thank you! Arrange the labels as the request states and list them.
Ans: Q, P, R

====

Target: recombinant IL4I1 (Homo sapiens (Human), UniProt Q96RQ9)
Assay: IL4I1 Enzymatic Assay (Amplex Red/HRP coupled fluorescence detection of H2O2)
Format: biochemical
Details: 240 min; recombinant IL4I1, four-hour pre-incubation with compound
Excerpt: Interleukin 4 inducible protein 1 (IL4I1) is an L-amino oxidase that catalyzes the oxidation of aromatic residues (Phe, Trp and Tyr): L-amino acid+H2O+O2→2-oxo acid+NH3+H2O2. […] In this assay, the hydrogen peroxide generated by IL4I1 is then detected through a coupled reaction with Amplex® Red (10-acetyl-3,7-dihydroxyphenoxazine) and horseradish peroxidase (HRP) to produce resorufin product that could be detected in the form of fluorescence signals. […]
measured quantity: EC50 (nM)

Q: Kindly indicate its recorded EC50. Item: O=C1C(=O)N(C2CCCC2)CCN1Cc1ncc(-c2cn[nH]c2)cc1F [Example 16]
Ans: 16

(a) O=C1C(=O)N(C2CCC2)CCN1Cc1ccc(-n2ncnn2)cn1 [Example 176]
(b) O=c1c(=O)n(C23CC(C2)C3)ccn1Cc1ccc(-c2nccs2)nn1 [Example 366]
(c) O=C1C(=O)N(C2CCC2)CCN1Cc1ccc(-n2ccnn2)nc1 [Example 109]
(d) N#CC1(n2ccn(Cc3ccc(-n4ccnn4)nn3)c(=O)c2=O)CC1 [Example 335]
Q: Given 4 molecules, produce a descending ranking by EC50. Arrange the labels as the request states and list them.
Ans: d, a, c, b

(1) O=C1C(=O)N(C2CCC2)CCN1Cc1ccc(-c2nccs2)nn1 [Example 365]
(2) N#CC1(n2ccn(Cc3cc(-c4cccnc4)on3)c(=O)c2=O)CC1 [Example 210]
Q: In the pair 1 and 2 , the larger recorded EC50 belongs to which? Reply briefly: the label of your chosen item.
Ans: 2
(2: 92 nM, 1: 17 nM)

(P) N#CC1(n2ccn(Cc3cn(-c4cccnc4)nn3)c(=O)c2=O)CC1 [Example 431]
(Q) N#Cc1ccccc1-c1nnc(CN2CCN(C34CC(C3)C4)C(=O)C2=O)s1 [Example 436]
Q: Of P and Q , which shows the smaller EC50 value? Reply briefly: the label of your chosen item.
Ans: Q
(Q: 20 nM, P: 130 nM)

(1) O=c1c(=O)n([C@H]2C[C@H]3C[C@H]3C2)ccn1Cc1ccc(-n2nccn2)cn1 [Example 408]
(2) O=C1C(=O)N(C2CCC2)[C@H]2CCC[C@@H]2N1Cc1ccc(-c2ccccc2)nn1 (single isomer, unassigned) [Example 435A]
Q: Of 1 and 2 , which shows the smaller EC50 value? Reply briefly: the label of your chosen item.
Ans: 1

(P) O=c1c(=O)n(C2CCC2)ccn1Cc1nnc(-c2ccccn2)s1 [Example 370]
(Q) O=c1c(=O)n([C@H]2C[C@@H](c3ccccc3)C2)ccn1Cc1nnc(-c2ccccc2)s1 [Example 48]
Q: Of P and Q , which shows the smaller EC50 value? Reply briefly: the label of your chosen item.
Ans: Q

(P) O=c1c(=O)n(C2CCC2)ccn1Cc1cnc(-c2ccccc2)nc1 [Example 130]
(Q) O=C1C(=O)N(C23CCC(CC2=O)C3)CCN1Cc1nnc(-c2ccccc2)s1 (centres unmarked) [Example 301]
Q: In the pair P and Q , the larger recorded EC50 belongs to which? Reply briefly: the label of your chosen item.
Ans: Q

(P) CC1CN(Cc2ccc(-n3nccn3)cn2)C(=O)C(=O)N1C1CCC1 (centres unmarked) [Example 178]
(Q) O=c1c(=O)n(C23CC(C2)C3)ccn1Cc1cc(-c2cccnc2)no1 [Example 223]
(R) CC1(n2ccn(Cc3ccc(-n4ccnn4)nc3)c(=O)c2=O)CC1 [Example 414]
Q: Given 3 molecules, produce a descending ranking by EC50. Arrange the labels as the request states and list them.
Ans: P, R, Q

(a) CC1(n2ccn(Cc3ccc(-n4ccnn4)cn3)c(=O)c2=O)CC1 [Example 385]
(b) O=c1c(=O)n(C2CCC2)ccn1Cc1nnc(-c2ccc(F)cc2)s1 [Example 30]
(c) O=c1c(=O)n(C2CCCC2)ccn1Cc1cc(-c2ccc(F)cc2)no1 [Example 164]
(d) O=C1C(=O)N(C23CC(F)(C2)C3)CCN1Cc1ccc(-n2cccn2)cn1 [Example 250]
Q: Please list these in order of increasing EC50. Thank you! Arrange the labels as the request states and list them.
Ans: c, b, a, d
(c: 1 nM, b: 8 nM, a: 42 nM, d: 240 nM)

====

target: recombinant IL4I1 (Homo sapiens (Human), UniProt Q96RQ9); experiment: IL4I1 Enzymatic Assay (Amplex Red/HRP coupled fluorescence detection of H2O2); type: biochemical; conditions: 240 min; recombinant IL4I1, four-hour pre-incubation with compound
measured quantity: EC50 (nM)

// worked examples, EC50 included
Q: Please tell me the measured EC50 for CC1(N2CCN(Cc3cc(-c4ccccc4)on3)C(=O)C2=O)CCC1 ; system: recombinant IL4I1 (Homo sapiens (Human), UniProt Q96RQ9).
Ans: 9

Q: Please tell me the measured EC50 for COCC(C)(C)N1CCN(Cc2nnc(-c3ccccc3)s2)C(=O)C1=O ; system: recombinant IL4I1 (Homo sapiens (Human), UniProt Q96RQ9).
Ans: 56

Q: Please tell me the measured EC50 for CC1(n2ccn(Cc3nnc(-c4ccc(F)cc4)s3)c(=O)c2=O)CCC1 ; system: recombinant IL4I1 (Homo sapiens (Human), UniProt Q96RQ9).
Ans: 8

Q: Please tell me the measured EC50 for O=C1C(=O)N(C2CCCC2)CCN1Cc1cc(-c2ccccc2)n[nH]1 ; system: recombinant IL4I1 (Homo sapiens (Human), UniProt Q96RQ9).
Ans: 34

(1) O=c1c(=O)n(C23CC(C2)C3)ccn1Cc1cc(-c2cccnc2)on1
(2) O=C1C(=O)N(C23CC(C2)C3)CCN1Cc1ccc(-c2ccccc2)nn1
(3) O=C1C(=O)N(C2CCCC2)CCN1Cc1nnc(-c2cccc(F)c2)s1
Q: Given 3 compounds, produce a descending ranking by EC50. Arrange the labels as the request states and list them.
Ans: 2, 1, 3

====

biological target: recombinant IL4I1 (Homo sapiens (Human), UniProt Q96RQ9); assay: IL4I1 Enzymatic Assay (Amplex Red/HRP coupled fluorescence detection of H2O2); type: biochemical; settings: 240 min; recombinant IL4I1, four-hour pre-incubation with compound
measured quantity: EC50 (nM)

// worked examples, EC50 included
Q: Kindly indicate its recorded EC50. Item: O=c1c(=O)n(C2CCC2)ccn1Cc1cc(-c2ccccc2)sn1 [Example 173]
Ans: 14

Q: Kindly indicate its recorded EC50. Item: O=C1C(=O)N([C@H]2C[C@@H](c3ccccc3)C2)CCN1Cc1ccc(-n2nccn2)nn1 [Example 326]
Ans: 20

Q: Kindly indicate its recorded EC50. Item: O=c1c(=O)n(C23CC(C2)C3)ccn1Cc1nnc(-c2cccc(F)c2)s1 [Example 144]
Ans: 2

Q: Kindly indicate its recorded EC50. Item: O=C1C(=O)N([C@H]2C[C@H]3C[C@H]3C2)CCN1Cc1cnc(-c2ccccc2)c(F)c1 [Example 131]
Ans: 9

(I) O=C1C(=O)N([C@@H]2CC[C@@H](c3ccccc3)C2)CCN1Cc1nnc(-c2ccccc2)s1 (single isomer, unassigned) [Example 440B]
(II) O=C1C(=O)N(C23CC(F)(C2)C3)CCN1Cc1cc(-c2cccnc2)no1 [Example 240]
(III) O=C1C(=O)N(C23CC(C2)C3)CCN1Cc1ncc(-n2nccn2)cc1F [Example 405]
(IV) O=C1C(=O)N(C2CCC2)CCN1Cc1cc(-c2ccccc2)on1 [Example 105]
(V) O=c1c(=O)n(C2(CF)CC2)ccn1Cc1ccc(-c2ccccn2)cn1 [Example 251]
Q: Given 5 compounds, produce a descending ranking by EC50. Arrange the labels as the request states and list them.
Ans: II, V, III, I, IV
(II: 995 nM, V: 100 nM, III: 23 nM, I: 6 nM, IV: 2 nM)

(1) O=C1C(=O)N([C@@H]2CC[C@@H](c3ccccc3)C2)CCN1Cc1nnc(-c2ccccc2)s1 (single isomer, unassigned) [Example 440D]
(2) O=C1C(=O)N(C2CC3CC2C3)CCN1Cc1ccc(-c2ccccc2)nn1 (stereo not shown) [Example 183]
Q: In the pair 1 and 2 , the larger recorded EC50 belongs to which? Reply briefly: the label of your chosen item.
Ans: 2

(I) O=C1C(=O)N(C2CCC2)CCN1Cc1cc(-c2ccc(F)cc2)no1 [Example 150]
(II) O=C1C(=O)N(C2CCC2)CCN1CC12CC(c3ccccn3)(C1)C2 [Example 177]
Q: Of I and II , which shows the smaller EC50 value? Reply briefly: the label of your chosen item.
Ans: I
(I: 3 nM, II: 84 nM)
